# test.system: TEAD3 (Homo sapiens (Human))
# Sequence (Q99594 whole entry, species assumed): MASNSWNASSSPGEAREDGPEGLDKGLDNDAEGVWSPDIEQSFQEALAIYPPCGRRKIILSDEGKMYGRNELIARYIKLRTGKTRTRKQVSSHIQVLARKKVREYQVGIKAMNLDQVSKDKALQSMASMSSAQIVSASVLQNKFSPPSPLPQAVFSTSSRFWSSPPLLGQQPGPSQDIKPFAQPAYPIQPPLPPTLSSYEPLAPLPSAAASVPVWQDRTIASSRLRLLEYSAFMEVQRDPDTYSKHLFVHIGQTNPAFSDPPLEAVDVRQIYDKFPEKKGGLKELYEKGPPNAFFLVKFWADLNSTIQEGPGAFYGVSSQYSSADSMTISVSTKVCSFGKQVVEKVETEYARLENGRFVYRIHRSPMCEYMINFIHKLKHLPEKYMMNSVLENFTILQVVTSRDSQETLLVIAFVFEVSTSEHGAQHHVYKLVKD
# assay.info: TR-FRET lipid pocket probe competition assay (Lipid HTRF), TEAD3
# Type: binding
# conditions: 4 hours pre-incubation; read-out: Lipid HTRF TEAD3 IC50
pIC50: −log10 of the molar value.
Answer Condition not met if pIC50 is under 6, and Condition met if it is 6 or more.

| compound | test.system | category |
| --- | --- | --- |
| C=C(F)C(=O)N1CC(c2nn(-c3ccc(OC(F)(F)F)cc3)c3nccc(NC(=O)CO)c23)C1 | TEAD3 (Homo sapiens (Human)) | Condition met |
| C=C(F)C(=O)N1CC(c2nn(-c3ccc(OC(F)(F)F)cc3)c3nccc([C@H](O)CO)c23)C1 | TEAD3 (Homo sapiens (Human)) | Condition met |
| C=C(C)S(=O)(=O)N1CC(c2nn(-c3ccc(OC(F)(F)F)cc3)c3nccc([C@H](O)CO)c23)C1 | TEAD3 (Homo sapiens (Human)) | Condition met |
| C=CC(=O)NCc1nn(-c2ccc(OC(F)(F)F)cc2)c2nccc(N3CCOCC3)c12 | TEAD3 (Homo sapiens (Human)) | Condition not met |
| C=CC(=O)NCc1nn(-c2cccc(OC(F)(F)F)c2)c2nccc([C@@H](O)CO)c12 (stereo in doubt) | TEAD3 (Homo sapiens (Human)) | Condition not met |
| O=C(/C=C/Cl)N1CC(c2nn(-c3ccc(OC(F)(F)F)cc3)c3nccc(CO)c23)C1 | TEAD3 (Homo sapiens (Human)) | Condition met |
| C=CC(=O)NCc1nn(-c2ccc(OC(F)(F)F)cc2)c2nccc(-c3cnn(CCS(C)(=O)=O)c3)c12 | TEAD3 (Homo sapiens (Human)) | Condition not met |
| C=C(F)C(=O)N1CC(c2nn(-c3ccc(OC(F)(F)F)cc3)c3nccc(-c4cnn(C5CC5)c4)c23)C1 | TEAD3 (Homo sapiens (Human)) | Condition not met |
| CC#CC(=O)N1CC(c2nn(-c3ccc(OC(F)(F)F)cc3)c3nccc([C@H](O)CO)c23)C1 | TEAD3 (Homo sapiens (Human)) | Condition met |
| C=CC(=O)NCc1nn(-c2ccc(OC(F)(F)F)cc2)c2nccc(NCCO)c12 | TEAD3 (Homo sapiens (Human)) | Condition met |
| Cc1ccnc2c1c(C1CN(C(=O)/C=C/CO)C1)nn2-c1ccc(OC(F)(F)F)cc1 | TEAD3 (Homo sapiens (Human)) | Condition met |
| C=CC(=O)NCc1nn(-c2ccc(OC(F)(F)F)cc2)c2nccc(N3CC(N)C3)c12 | TEAD3 (Homo sapiens (Human)) | Condition not met |
| C=C(F)C(=O)NCc1nn(-c2ccc(OC(F)(F)F)cc2)c2nccc([C@H](O)CO)c12 | TEAD3 (Homo sapiens (Human)) | Condition not met |
| C=CC(=O)NCc1nn(-c2ccc(OC(F)(F)F)cc2)c2nccc(OCCO)c12 | TEAD3 (Homo sapiens (Human)) | Condition not met |
